Experiment: CCTE_Shafer_MEA_acute_per_network_burst_spike_number_mean: CCTE's Neural Acute Assay for Average Number of Spikes in a Network Burst, Shafer Lab (AID 2284019)
Active and inactive are the calls of the source. How the source made its calls: active means hit-call score of the fitted dose curve at least 0.9, where 1 is the maximum; inactive means score below 0.9.
Answer with one of the outcomes T = active, F = inactive

Recorded test call requested for C=CCOC(Cn1ccnc1)c1ccc(Cl)cc1Cl (stereo not drawn)
F

Record lookup: outcome of this test for CC(C)(C)[C@@H](O)[C@@H](Cc1ccc(Cl)cc1)n1cncn1 ?
F

Please share the test call associated with N#CSCSc1nc2ccccc2s1 .
T

Hi team, can someone confirm the assay call for CCNc1nc(N)nc(Cl)n1 ?
F

Which outcome was entered for the compound CC(C)CCCCCCc1ccc(O)cc1 in this test?
F

Dear colleague, could you share the recorded outcome for CC1(C)C(C=C(Cl)Cl)C1C(=O)OCc1cccc(Oc2ccccc2)c1 (stereo not drawn) when you have a moment?
F

Tell me the assay call for C#CCOC(=O)[C@@H](C)Oc1ccc(Oc2ncc(Cl)cc2F)cc1 please.
F

Could you check what this test reported for CCCN(CCC)c1c([N+](=O)[O-])cc(C(F)(F)F)c(N)c1[N+](=O)[O-] ?
F

Can you look up the reported call for CSC(=O)c1cccc2nnsc12 for me?
F

Write down the call the test reported for this compound. Item: O=C(c1ccccc1)C1CCCCC1
F

What classification did Oc1ccc(C(c2ccc(O)cc2)C(Cl)(Cl)Cl)cc1 end up with in this test?
T

Outcome? Cc1nn(C)c(Oc2ccccc2)c1C=NOCc1ccc(C(=O)OC(C)(C)C)cc1
T

Test call, this compound: CCCCC(CC)CN1C(=O)C2C3C=CC(C3)C2C1=O (stereo not drawn)
T

* * *

Target: Estrogen receptor (Homo sapiens)
Assay: ATG_ERa_TRANS: Attagene TRANS-FACTORIAL HepG2 Assay for human Estrogen Receptor alpha (ERa) (AID 2282970)
Details: HepG2 Attagene TRANS ERa GAL4 reporter, mRNA
Records with an inconclusive call do not appear. Active and inactive are the calls of the source. The calls were made as follows: active = hit-call score of the fitted dose curve at least 0.9, where 1 is the maximum; inconclusive = response in the unintended direction; inactive = score below 0.9.
assayReadout: AC50

Worked examples follow.
>>> df
                                   molecule  assayreadout          observed
0  CCOC(=O)COc1cc(-n2ncc(C(F)(F)F)c(C)c2=O)c(F)cc1Cl          AC50          inactive
1                            O=C(O)c1ccccc1          AC50          inactive
2  CCN(Cc1c(F)cccc1Cl)c1c([N+](=O)[O-])cc(C(F)(F)F)cc1[N+](=O)[O-]          AC50  3.08 µM (active)
3                  COc1c(Cl)ccc(Cl)c1C(=O)O          AC50          inactive
4                c1ccc2[nH]c(-c3cscn3)nc2c1          AC50          inactive

The molecule CCCN(CCC)C(=O)SCC on Estrogen receptor (Homo sapiens): AC50 was inactive

Entry CCCCC(CC)CN1C(=O)C2C3C=CC(C3)C2C1=O (centres undefined) ; assay system Estrogen receptor (Homo sapiens); AC50 recorded at 50 µM (active)

Response field AC50 (Estrogen receptor (Homo sapiens)) for item CN(C)C(=O)Nc1ccc(Cl)c(Cl)c1 : inactive

* * *

Experiment: APR_HepG2_CellLoss_24hr: Apredica 24-hour HepG2 Assay for Cell Loss (AID 2282908)
Conditions: high-content imaging
Experimental: APR_HepG2_24hr is a cell-based, multiplexed-readout assay that uses HepG2, a human liver cell line, with measurements taken at 24 hours after chemical dosing in a 384-well plate.APR_HepG2_CellLoss_24hr is one of 10 assay component(s) measured or calculated from the APR_HepG2_24hr assay. […] This assay endpoint, APR_HepG2_CellLoss_24hr, was analyzed with bidirectional fitting relative to DMSO as the negative control and baseline of activity. […]
Active and inactive are the calls of the source. How the source made its calls: active means hit-call score of the fitted dose curve at least 0.9, where 1 is the maximum; inactive means score below 0.9.
Parameter call: string, one of active, inactive

I would be grateful if you could indicate the recorded call for CSC(=O)c1cccc2nnsc12 .
inactive

Look up the recorded call for c1ccc2[nH]c(-c3cscn3)nc2c1 in this test.
inactive

So what was the verdict on O=C(O)C1(C(=O)Nc2ccc(Cl)cc2Cl)CC1 in this test?
inactive

Field: outcome | Entry: O=C(Nc1ccc([N+](=O)[O-])cc1Cl)c1cc(Cl)ccc1O
active

Please indicate how the test categorized CC(=O)[C@H]1CC[C@H]2[C@@H]3CCC4=CC(=O)CC[C@]4(C)[C@H]3CC[C@]12C .
active

# outcome recorded in this test, key = CCOC(=O)[C@H](C)Oc1ccc(Oc2nc3ccc(Cl)cc3o2)cc1
inactive

Field: outcome | Entry: COc1c(Cl)ccc(Cl)c1C(=O)O
inactive

I'd appreciate the recorded outcome for OB(O)O from this test.
inactive

Could you kindly confirm the outcome this assay logged for CCN(Cc1c(F)cccc1Cl)c1c([N+](=O)[O-])cc(C(F)(F)F)cc1[N+](=O)[O-] ?
inactive

Outcome? COc1nc(C)nc(NC(=O)NS(=O)(=O)c2ccccc2OCCCl)n1
inactive

Each compound tested received a call. Report the one for CC(=O)S[C@@H]1CC2=CC(=O)CC[C@]2(C)[C@H]2CC[C@@]3(C)[C@@H](CC[C@@]34CCC(=O)O4)[C@H]12 .
active

* * *

Read-out: Collagen III, COL3A1 (gene 1281)
Assay: BSK_hDFCGF_CollagenIII: BioMAP Diversity Plus: hDFCGF Assay for Collagen III Biomarker Activity (AID 2283056)
Details: primary human foreskin fibroblasts; actives raise or lower the signal
The source made the active and inactive calls. Rule for the calls: active = hit-call score of the fitted dose curve at least 0.9, where 1 is the maximum; inactive = score below 0.9.
Field 'call' accepts active, inactive

Can you look up the reported call for C#C[C@]1(O)CC[C@H]2[C@@H]3CCC4=CC(=O)CC[C@@H]4[C@H]3CC[C@@]21CC for me?
inactive

Could you kindly confirm the outcome this assay logged for CCCOC(=O)c1ccc(C(=O)OCCC)nc1 ?
inactive

Kindly provide the recorded test outcome for the following molecule: S=C(S)NCCNC(=S)S.[Mn+2].[S-]C([S-])=NCCN=C([S-])[S-].[Zn+2]
inactive

Dear all, I need the recorded test outcome for CCOC(=O)c1ccc(O)cc1 , thank you.
inactive

Which outcome was entered for the molecule COc1c(Cl)ccc(Cl)c1C(=O)O in this test?
inactive

How did this test come out for CCNc1nc(N)nc(Cl)n1 ?
inactive

In this assay, the call recorded for Cc1nn(C)c(Oc2ccccc2)c1C=NOCc1ccc(C(=O)OC(C)(C)C)cc1 was what?
active

Recorded test call requested for OB(O)O
inactive

Check the results log: what was the call for Oc1ccc(C(c2ccc(O)cc2)C(Cl)(Cl)Cl)cc1 ?
active

What did this assay record as the result for O=C(O)c1ccccc1 ?
inactive

Which outcome did this test record for the molecule CCCCOCCOCCOCc1cc2c(cc1CCC)OCO2 ?
active

For COC(=O)c1ccccc1S(=O)(=O)NC(=O)Nc1nc(OC(F)F)cc(OC(F)F)n1 , what call appears in the results of this test?
inactive

* * *

Read-out: MicroRNA 122 (MIR122), gene 406906
Assay: LTEA_HepaRG_MIR122: Life Technologies and Expression Analysis (LTEA) Assay for MicroRNA 122 (MIR122) using HepaRG (AID 2283516); further: the transcript read is the microRNA miR-122
Details: mRNA level, 48 h; actives raise or lower the signal
The source made the active and inactive calls. Rule for the calls: active = hit-call score of the fitted dose curve at least 0.9, where 1 is the maximum; inactive = score below 0.9.
assayReadout: AC50

>>> print(df.to_string())
                                   compound          observed
0  CCOC(=O)C(C)Oc1ccc(Oc2nc3ccc(Cl)cc3o2)cc1 (stereo not drawn)          inactive
1  Cc1nn(C)c(Oc2ccccc2)c1C=NOCc1ccc(C(=O)OC(C)(C)C)cc1  30.3 µM (active)
2  CCCCC(CC)COC(=O)c1ccccc1C(=O)O (stereo not drawn)          inactive
3  CC(C)(C)[C@@H](O)[C@@H](Cc1ccc(Cl)cc1)n1cncn1          inactive
4  CC(=O)S[C@@H]1CC2=CC(=O)CC[C@]2(C)[C@H]2CC[C@@]3(C)[C@@H](CC[C@@]34CCC(=O)O4)[C@H]12  67.5 µM (active)

Reported AC50 of O=C(O)C1(C(=O)Nc2ccc(Cl)cc2Cl)CC1 : 50 µM (active)

AC50 reading for CC1(C)C(C=C(Cl)Cl)C1C(=O)OCc1cccc(Oc2ccccc2)c1 (stereo not drawn) : inactive

AC50 for CCC(C)OC(=O)N1CCCCC1CCO (stereo not drawn) is inactive

The reported value for CCCCCOC(=O)COc1cc(N2C(=O)C3=C(CCCC3)C2=O)c(F)cc1Cl in terms of AC50 is inactive

Entry CCCCCCC(C)OC(=O)COc1nc(F)c(Cl)c(N)c1Cl (stereo not drawn) — recorded AC50 = inactive

Per the record, CCNc1nc(N)nc(Cl)n1 has AC50 of inactive

Noted for C[C@]12CC[C@@H]3c4ccc(O)cc4C[C@@H](CCCCCCCCCS(=O)CCCC(F)(F)C(F)(F)F)[C@H]3[C@@H]1CC[C@@H]2O (stereo partly drawn) : its AC50 reads 28.7 µM (active)

AC50 recorded for this compound, CCN(Cc1c(F)cccc1Cl)c1c([N+](=O)[O-])cc(C(F)(F)F)cc1[N+](=O)[O-] , is inactive

The recorded AC50 for C#CCOC(=O)[C@@H](C)Oc1ccc(Oc2ncc(Cl)cc2F)cc1 is inactive

Value of AC50 reported for the compound CCCOC(=O)NCCCN(C)C is inactive

Quick note, AC50 for CCOC(=O)COc1cc(-n2ncc(C(F)(F)F)c(C)c2=O)c(F)cc1Cl landed at inactive

For reference, reported AC50 for CC(C)CCCCCCc1ccc(O)cc1 stands at inactive

The compound listed as COC(=O)CSc1cc(N=c2sc(=O)n3n2CCCC3)c(F)cc1Cl shows AC50 equal to inactive

Query CCCOC(=O)c1ccc(C(=O)OCCC)nc1 yields AC50 of inactive

Noted for C[C@]12C[C@H](O)[C@H]3[C@@H](CCC4=CC(=O)CC[C@@]43C)[C@@H]1CC[C@@H]2C(=O)CO : its AC50 reads inactive

// CCCCOC(=O)[C@@H](C)Oc1ccc(Oc2ccc(C(F)(F)F)cn2)cc1 : AC50 value = inactive

Lookup result for c1ccc2[nH]c(-c3cscn3)nc2c1 ; measured AC50: inactive

According to the records, this compound N#CSCSc1nc2ccccc2s1 displays AC50 of 69.3 µM (active)
